- TARGET OR SYSTEM: UniProt P07900
- Assay type: functional, organism-based
Active and inactive are the calls of the source.

# COMPOUND, AC50
rows = [
    ("Oc1c(CN2CCN(c3ccccc3)CC2)cc(Br)c2cccnc12", "4.59 µM (active)"),
    ("Cc1cccc(CS(=O)(=O)c2ncc(Cl)c(C(=O)Nc3ccc(F)cc3)n2)c1", "1.73 µM (active)"),
    ("Cc1cc2c(cc1C)CSC(c1c(O)ccc3ccccc13)SC2", "4.26 µM (active)"),
    ("CCCCC(=O)NC(c1cccs1)c1cc(Cl)c2cccnc2c1O (stereo unspecified)", "3.6 µM (active)"),
    ("O=C1C2C3C=CC(CNS(=O)(=O)c4ccccc4[N+](=O)[O-])(O3)C2C(=O)N1c1ccccc1 (stereo unspecified)", "25.5 µM (active)"),
    ("COc1cccc(F)c1C(C[N+](=O)[O-])c1c(N)n(C)c(=O)n(C)c1=O (stereo unspecified)", "3.91 µM (active)"),
]

Source of measurements: ChEMBL document CHEMBL1201862
